Test system: Plasmodium falciparum
Assay: Hit confirmation in dose-response curve in NF54 pLDH assay, at 72h
Format: functional, organism-based
Parameters: timepoint 72 hour
Details: NF54, Erythrocyte
pIC50: −log10 of the molar value.
quantity-name: pIC50

>>> value("CNC(=O)[C@@H]1C[C@H](NCc2cc(OC)c(OC)c(OC)c2)CN1CC(c1ccccc1)c1ccccc1")
5.44
>>> value("CCN1C(=O)c2ccccc2N2C(=O)CC[C@@]12C(=O)Nc1cccc(OC)c1")
5.87
>>> value("COc1ccc(-c2cc3nc(C)cc(N4CCN(C/C=C/c5ccccc5)CC4)n3n2)cc1OC")
5.13
>>> value("COc1cccc(NC(=O)Cn2c(C)ccc(NS(=O)(=O)c3ccc(C)cc3)c2=O)c1")
5.10
>>> value("Cc1ccc(CC[C@H]2Nc3ccccc3C(c3ccccc3)(c3ccccc3)O2)o1")
5.46
>>> value("CCc1ccc(CN2CCC[C@H](c3ncc[nH]3)C2)nc1")
5.81
>>> value("CCNc1nc(C)cc(Nc2ccc(NC(=O)c3cc(C)ccc3C)cc2)n1")
6.11
>>> value("Cc1c(-c2ccc(F)cc2)[nH]c2ccc(CNc3nccc(N(C)C)n3)cc12")
5.42
>>> value("COc1ccc(C(=O)N(C(=O)c2ccc(OC)cc2)c2c3c(nc4ccccc24)CCCC3)cc1")
5.31
>>> value("Cc1ccc(O)c(CNCC2(c3ccccc3Cl)CCOCC2)n1")
6.24
>>> value("Cc1ccc(C2=C[C@@H](c3ccc(Cl)cc3)n3nc(NC(=O)c4ccccc4)nc3N2)cc1")
5.46
>>> value("CC1CC(Nc2ncnc3cc(Br)ccc23)CCN1C (stereo unspecified)")
5.80
>>> value("Cc1cc(N2C[C@H]3CC[C@@H](C2)[C@H]3N(C)C)nc(Nc2cccc(O)c2)n1")
5.69
>>> value("Cc1c(C)n(CC(O)CNC(C)c2ccccc2)c2c(Cl)cccc12 (stereo unspecified)")
5.01
>>> value("Oc1cc(CC[C@H]2CCCCN2)cc(-c2cnc3ccccc3n2)c1")
5.56
>>> value("CCNc1nc(C)cc(Nc2ccc(NS(=O)(=O)c3c(C)noc3C)cc2)n1")
5.46
>>> value("Cc1ccc(CN2CCN(C[C@@H](O)Cn3c4ccccc4n4c(=O)cc(C)c(C#N)c34)CC2)c(C)c1")
5.45

---

Tested on: Plasmodium falciparum
Assay: Hit confirmation in dose-response curve in NF54 pLDH assay, at 72h
Type: functional, organism-based
Design: timepoint 72 hour
Settings: NF54, Erythrocyte
quantity-name: IC50 (µM)

>>> value("COc1ccc([C@@H]2C=C(c3ccc(Cl)cc3)N=C3NC(NC(=O)c4ccccc4OC)=NN32)cc1")
2.95
>>> value("C[C@H]1CCC[C@@H](NCCc2ccccc2)CCC/C=C/c2cc(O)cc(O)c2C(=O)O1")
2.95
>>> value("O=C1NC(=O)c2ccc3c4c(ccc1c24)C(=O)N(c1ccccc1)C3=O")
3.55
>>> value("C[N+]1(CCCC(=O)c2ccc3c(c2)OCCO3)CCC(c2ccccc2)C1 (stereo not given)")
3.8
>>> value("CCN1CCN(c2cccc(NC(=O)c3ccc4[nH]c5ccccc5c(=O)c4c3)c2)CC1")
1.7
>>> value("CC(=O)Nc1ccc(C)cc1S(=O)(=O)N1CC=C(c2c(C)n(Cc3ccccc3C)c3ccccc23)CC1")
4.47
>>> value("Cc1cc(OC[C@@H](O)CNC(C)(C)CC(C)(C)C)cc(C)c1Cl")
8.32
>>> value("O=C(Nc1cccnc1)c1ccc(-c2ccc(Cl)c(Cl)c2)o1")
8.32
>>> value("COc1ccc(-c2cc3ncc(C(=O)c4cc(Cl)ccc4O)cn3n2)cc1")
3.89
>>> value("O=C(N[C@@H](Cn1nccn1)c1ccccc1)c1cc(Br)ccc1Cl")
2.75
>>> value("CCC1=C(c2ccc(C)cc2)S(=O)(=O)N=C1N1CCC(C(=O)NCCN2CCCC[C@@H]2C)CC1")
1.35
>>> value("Cc1nc(C(=O)Nc2[nH]c(=O)ncc2F)c(-c2ccccc2)o1")
0.0126
>>> value("O=C(Nc1ccc(Cl)c(Cl)c1)Nc1ccc(Cl)cc1NC(=O)Nc1ccc(Cl)c(Cl)c1")
6.92
>>> value("O[C@@H](CNCc1ccsc1C(F)(F)F)c1cc(Cl)c2c(c1)OCCO2")
6.46
>>> value("CCN1CCN(c2cccc(NC(=O)c3cc(F)cc4c(=O)c5cc(F)ccc5[nH]c34)c2)CC1")
1.38
>>> value("Oc1cc(OCc2ccccc2F)ccc1-c1[nH]ncc1-c1ccccc1")
4.07
>>> value("Cc1cc(N2CCC3(CCCN3Cc3cc(C#N)n(C)c3C)CC2)c2ccccc2n1")
3.39
>>> value("CC(=O)c1cccc(NC(=O)[C@@]23CCC(=O)N2c2ccccc2C(=O)N3C)c1")
5.89
>>> value("Fc1cnc(OC2Cc3ccccc3C2)nc1")
3.24

---

Test system: Plasmodium falciparum
Experiment: Hit confirmation in dose-response curve in NF54 nanoGlo assay, at 72h
Assay type: functional, organism-based, Erythrocyte
Parameters: timepoint 72 hour
Conditions: Plasmodium falciparum, NF54, Erythrocyte, 72 h
Entries are sorted into classes by IC50 as follows: 0 = under 0.7 µM, 1 = from 0.7 µM up to 2 µM, 2 = 2 µM and over

>>> category_label("Cc1cc(N)nc(Nc2ccc(Nc3ccccc3)cc2)n1")
2
>>> category_label("Oc1ccc2cc(CN3CCC[C@H](CN4CCCC4)C3)ccc2c1")
1
>>> category_label("CC(C)c1ccc2ncnc(N[C@H]3CCc4[nH]cnc4C3)c2c1")
0
>>> category_label("CC(C(=O)Nc1nccs1)N1CCCC(c2ccn[nH]2)C1 (stereo unspecified)")
2
>>> category_label("COc1nc(-c2cccc(C(=O)NCC3CCOCC3)c2)ncc1F")
0
>>> category_label("O=C(c1ccccc1F)N(Cc1nccn1Cc1c(F)cccc1Cl)C1CC1")
2
>>> category_label("CC[n+]1c(/C=C/N(C)c2ccccc2)oc2ccccc21")
1
>>> category_label("c1cc(N2CC[C@@]3(CCCNC3)C2)c2sccc2n1")
0
>>> category_label("COc1ccc(-c2cc(C(F)(F)F)nc(-n3nc(-c4cccc(OC)c4)c(Cl)c3-c3cccc(OC)c3)n2)cc1")
1
>>> category_label("Fc1cnc(OC2Cc3ccccc3C2)nc1")
1
>>> category_label("Cc1ccc([C@H](c2c[nH]c3ccccc23)N(C)C(=O)C(C)C)cc1")
2

---

System: Plasmodium falciparum
Assay: Hit confirmation in dose-response curve in NF54 nanoGlo assay, at 72h
Format: functional, organism-based, Erythrocyte
Parameters: timepoint 72 hour
Conditions: Plasmodium falciparum, NF54, Erythrocyte, 72 h
Reported log10 IC50 is given for each of the following molecules.
quantity-name: log10 IC50 (log10 of the value in nM)

>>> value("COc1ccc(CCNC(=O)c2cnn3c4c(cnc23)C[C@@H](C)CC4)cc1OC")
3.48
>>> value("CCN(CC)C(=O)c1cnc2snc(C)c2c1N1CCC(C(=O)Nc2c(C)cc(C)cc2C)CC1")
3.51
>>> value("Cc1ccc(S(=O)(=O)Nc2c(S(=O)(=O)c3ccc(C)cc3)c3nc4ccccc4nc3n2C[C@H]2CCCO2)cc1")
3.41
>>> value("CCOc1cc(C(=O)Nc2ccc3nc4c(c(Nc5ccc(OC)c(OC)c5)c3c2)CCCC4)cc(OCC)c1OCC")
3.14
>>> value("O=C(c1ccccc1)c1cc(Cl)ccc1NC(=O)[C@H]1CC(=O)N(c2ccc(F)cc2)C1")
3.35
>>> value("O=C(Nc1ccccc1)Nc1cnc(-n2ccnc2)nc1")
3.42
>>> value("Oc1cccc(CN[C@H]2CCCc3occc32)c1Cl")
3.20
>>> value("N#Cc1c(NC(=O)Nc2cn3ccccc3c2C#N)cn2ccccc12")
2.48
>>> value("Oc1ccc2ncccc2c1[C@@H](Nc1ccccn1)c1cccc(Br)c1")
3.20
>>> value("CC[n+]1ccc(-c2ncc(-c3ccc(C(C)(C)C)cc3)o2)cc1")
2.77
>>> value("c1ccc(-c2cn3c(n2)c(-c2ccc4ccccc4n2)cc2ccccc23)cc1")
3.91
>>> value("Oc1cc(OCc2ccccc2F)ccc1-c1[nH]ncc1-c1ccccc1")
3.34
>>> value("CC[C@H]1CN2C=NC(N3CCN(C(=O)Nc4cc(F)cc(F)c4)CC3)=CC2=N1")
3.45
>>> value("COc1ccc(-c2c[n+](-c3ccc(Cl)cc3)c3n2CCCCC3)cc1")
3.14
>>> value("C[n+]1ccccc1/C=C/c1c[nH]c2ccccc12")
2.61
>>> value("COc1cc(C(=O)Nc2[nH]c(=O)ncc2F)ccc1Cl")
0.77
>>> value("COc1cc([C@H](CC(=O)NC2CCN(Cc3ccccc3)CC2)N2Cc3ccccc3C2=O)cc(OC)c1OC")
3.38
>>> value("COc1ccc(C(=O)CN2C=CCC=C2c2nc(-c3ccc(Cl)cc3)cs2)cc1")
3.33
>>> value("Clc1ccc(C[n+]2ccc(-c3nc4ccccc4o3)cc2)c(Cl)c1")
2.76
>>> value("O=C(Nc1nc2cccc(Cl)c2o1)c1cccc(F)c1")
3.12
